Molecular target: Factor Xa (Homo sapiens)
Sequence (P00742 235-488 limits assumed): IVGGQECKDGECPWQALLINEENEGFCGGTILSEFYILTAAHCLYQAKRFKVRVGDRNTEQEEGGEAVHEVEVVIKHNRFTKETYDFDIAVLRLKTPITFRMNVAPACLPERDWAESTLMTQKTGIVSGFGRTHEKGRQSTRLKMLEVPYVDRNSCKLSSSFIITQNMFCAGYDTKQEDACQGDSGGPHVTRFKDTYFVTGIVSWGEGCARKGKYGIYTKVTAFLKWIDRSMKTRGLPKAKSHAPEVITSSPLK
Sequence (P00742 41-179 partner limits assumed): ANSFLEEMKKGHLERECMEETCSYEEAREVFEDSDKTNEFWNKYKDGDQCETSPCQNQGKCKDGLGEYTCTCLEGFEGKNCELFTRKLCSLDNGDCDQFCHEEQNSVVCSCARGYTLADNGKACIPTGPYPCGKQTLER
Experiment: In vitro Factor Xa inhibition, chromogenic assay
Type: biochemical
Conditions: 0.1 μM compound, read-out: % Factor Xa inhibition at 0.1 μM using chromogenic assay
Experimental: In vitro Factor Xa inhibitory activities were determined as per standard protocols and the results of representative compounds are provided in tables 1 and 2 below as proof of the efficacies of the novel class of compounds disclosed above.
measurement_label: inhibition at 0.1 µM (%)

{"compound": "CN(C)CCN=S(C)(=O)c1ccc(C(=O)Nc2ccc(Cl)cc2C(=O)Nc2ccc(Cl)cn2)cc1 (stereo not shown)", "scale_unit": "%", "inhibition at 0.1 µM": 66}
{"compound": "CS(=N)(=O)c1ccccc1-c1ccc(C(=O)Nc2ccc(Cl)cc2C(=O)Nc2ccc(Cl)cn2)cc1 (stereo not shown)", "scale_unit": "%", "inhibition at 0.1 µM": 93}
{"compound": "COc1ccc(NC(=O)c2ccc(S(C)(=O)=NC(=O)CN(C)C)cc2)c(C(=O)Nc2ccc(Cl)cn2)c1 (stereo not shown)", "scale_unit": "%", "inhibition at 0.1 µM": 56}
{"compound": "CCN(CC)CC(=O)N=S(C)(=O)c1ccc(C(=O)Nc2ccc(Cl)cc2C(=O)Nc2ccc(Cl)cn2)cc1 (stereo not shown)", "scale_unit": "%", "inhibition at 0.1 µM": 70}

Taken from patent US8227492B2.
